Each record here notes measured IC50.
System: OVCA2
Assay: MTS cell proliferation/viability assay, 72 hours drug exposure
Type: cell-based
Conditions: log10 of IC50, uM
property.measured: IC50

{"compound": "Cc1nc(Nc2ncc(C(=O)Nc3c(C)cccc3Cl)s2)cc(N2CCN(CCO)CC2)n1", "result.value": "0.953 µM"}
{"compound": "C[C@H]1[C@H](OC(=O)CCC(=O)O)O[C@@H]2O[C@@]3(C)CC[C@H]4[C@H](C)CC[C@@H]1[C@@]24OO3 [Artesunate]", "result.value": "1.31 µM"}
